Tested on: UACC-257 melanoma
protocol_notes: NCI-60 one-dose screen, 48 h (100 = growth as untreated, 0 = no growth, -100 = all killed)
cond: 10 µM unless noted
This is part of a sample that, as a whole, favours compounds with a hit. Of some 83,000 tested, about 20% had one in any assay.
Entries whose growth is below 80% take Condition met; entries at or above 80% take Condition not met.

Known results for molecules:
{"molecule": "COc1ccc(-c2nnc(SCC(=O)Nc3ccc(C(=O)/C=C/c4ccccc4)cc3)o2)cc1OC", "assigned_class": "Condition not met"}
{"molecule": "Nc1ncnc2c1c(C(F)(F)F)cn2[C@@H]1O[C@H](CO)[C@@H](O)[C@H]1O", "assigned_class": "Condition met"}
{"molecule": "COCCNC(C(=O)c1ccccc1)c1ccccc1 (stereo unspecified)", "assigned_class": "Condition not met"}
{"molecule": "Nc1nc(Nc2ccc(OCc3cccc(F)c3)cc2)c2c(n1)[nH]c1ccc(O)cc12", "assigned_class": "Condition met"}

We next turn to a different molecule, shown below.
Qu. API: query returns whether the molecule falls strictly under 80% in growth. Query: C#CC(=O)/C=C/CCCCCCC#CC(=O)CCC(=O)C#CCCCCCC/C=C/C(=O)C#C
Ans. Condition met
